Reported IC50 is given for each of the following molecules.
# TEST_METHOD_NOTES: Cytotoxicity against human ChaGo cells after 3 days by MTT assay
# Format: functional, cell-based
# CONDITION_CONTEXT: 72 h

>>> value("COc1cc(OCC(O)CCl)c2c(c1)O[C@@H]1COc3cc(OC)c(OC)cc3[C@]1(O)C2=O (mixture of isomers)")
"> 100 µM"
>>> value("COc1cc(OCC(O)CNCCc2ccccc2)c2c(c1)O[C@@H]1COc3cc(OC)c(OC)cc3[C@]1(O)C2=O (mixture of isomers)")
"> 100 µM"

Proceeding to the next molecule to report its IC50.
Summary for this molecule, COCC(O)COc1cc(OC)cc2c1C(=O)[C@@]1(O)c3cc(OC)c(OC)cc3OC[C@H]1O2 (mixture of isomers) : IC50 is > 100 µM
